tested on: CCRF-CEM; experiment: NCI tumour cell line growth inhibition, 48 h
Calls of active or inactive are those of the source. Cut-off read from the data, not from the text of the source: active = GI50 up to about 1.1 µM and inactive = higher.
Returns: one label drawn from T for active, F for inactive

Below, 6 compounds whose answers are already recorded.
Compound | Answer label
CCCCCCCCCCCCCB(O)O | F
CN(O)C(=O)SCC(NC(=O)CCC(N)C(=O)O)C(=O)NCC(=O)O (stereo not given) | F
O=C(NCCCN1CCN(CCCNC(=O)c2cccc3ccccc23)CC1)c1cccc2ccccc12 | F
CCCCCCCCCCCC(=O)OCCOCCOCCOCCOCCOC(=O)CCCCCCCCCCC | F
Cc1c2cccc-2c(OCCO)cc2c1[nH]c1ccccc12 | F
COc1cc(/C=C/c2ccc(C)cc2)cc(OC)c1OC | F

Assay result, entry `Cn1c(-c2cccc(N)c2)[n+](C)c2ccccc21` — outcome?
F

Next compound: C=C(CN(C)C)C1(c2ccccc2)CC2(CCCC2)C(=O)O1 (stereo not given)
F

Cool, now COP(=O)(OC)C(Nc1ccc(Cc2ccc(NC(c3ccco3)P(=O)(OC)OC)cc2)cc1)c1ccco1 (stereo not given)
F
